Target Of Assay: Cellular tumor antigen p53 (Homo sapiens) (UniProt P04637)
Sequence (P04637 whole entry, looked up): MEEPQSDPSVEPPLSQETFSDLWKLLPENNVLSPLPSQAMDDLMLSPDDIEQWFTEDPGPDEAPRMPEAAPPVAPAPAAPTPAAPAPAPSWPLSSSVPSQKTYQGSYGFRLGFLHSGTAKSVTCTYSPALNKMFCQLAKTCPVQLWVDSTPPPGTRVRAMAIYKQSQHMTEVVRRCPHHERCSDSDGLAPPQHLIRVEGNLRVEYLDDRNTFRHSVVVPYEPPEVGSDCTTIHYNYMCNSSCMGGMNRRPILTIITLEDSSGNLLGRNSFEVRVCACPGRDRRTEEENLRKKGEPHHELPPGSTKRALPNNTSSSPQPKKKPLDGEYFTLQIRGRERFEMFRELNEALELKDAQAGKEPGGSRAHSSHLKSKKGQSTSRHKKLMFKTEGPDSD
Experiment Notes: nuclear p53 accumulation, HPV+ cells – imaging, p53-positive nuclei imaging, 24 h, 48 h (AID 1508601)
Condition Context: 24/48 h, measured here: p53 positive nuclei at 24 h, Library stock concentration: 1.67 mM, stronger effect = higher value
Among all 5,700 compounds or so, about 85 (1%) were called active. The sample holds actives, similar compounds and a random draw of the others, so the mix is not that of the screen.
Some compounds, each annotated with its measured p53-positive nuclei, normalised.
Readout Kind: p53-positive nuclei, normalised (%)

In [3]: df
Out[3]:
                                    compound  result_unit  quantitative_result
 0  COC(=O)C(NC(=O)c1cc(-c2ccccc2)nc2ccccc12)c1ccccc1 (stereo unspecified)            %                0.359
 1  Cc1cc(C)c(N(Cc2ccccc2)S(=O)(=O)c2ccc(OCCNC(=O)c3cc4ccccc4o3)cc2)c(C(=O)NO)c1            %               -0.139
 2  CN1CCN(c2ccc(Nc3c4ccccc4nc4ccccc34)cc2)CC1            %                0.126
 3  CCOC(=O)NC1CCC2C(C1)CC1C(=O)OC(C)C1C2C=Cc1ccc(-c2cccc(F)c2)cn1 (stereo unspecified)            %               -0.079
 4                     Nc1cccc(OCc2ccccc2)c1            %               0.0148
 5     CCN(CC)c1ccc(C=NNC(=O)c2ccc(O)cc2)cc1            %               0.0252
 6  CN(CCC(Oc1ccc(-c2ccccc2)cc1)c1ccc(F)cc1)CC(=O)O (stereo unspecified)            %               -0.153
 7  CCCCCCCCc1cccc(NC(=O)C(N)COP(=O)(O)O)c1 (stereo unspecified)            %              -0.0401
 8  Cc1nc(Nc2n[nH]c3c2CN(C(=O)NC(CN(C)C)c2ccccc2)C3(C)C)c2sccc2n1 (stereo unspecified)            %                 1.31
 9                          Cc1ccc(B(O)O)cc1            %               -0.218
10  Cc1cc(OCc2nnc(SC3CCCC3)n2-c2cccnc2)ccc1-c1ccc(S(C)(=O)=O)cc1            %                 1.05
